# System: UACC-257 melanoma
# test-description: NCI-60 one-dose screen, 48 h
# condition-notes: 10 µM unless noted
Compounds without any hit were thinned out: in the full panel of roughly 83,000, 20% have a hit. The source made the active and inactive calls. How the source made its calls: active means growth percent below 10; inactive means the rest.
Just give me one of these, please: active, inactive

Please review the entries below; each comes with its answer.
In [3]: df
Out[3]:
                                   compound  group_label
0      COc1ccc(/C=C(\C#N)c2cc3ccccc3n2C)cc1     inactive
1  COc1ccc(/C=N/OCC(O)CN2CCC(O)CC2)cc1OC1CCCC1 (stereo unspecified)     inactive
2  CN1CCn2c(c(Sc3ccc(C(=O)NO)cc3)c3ccccc32)C1=O       active
3         COc1cccc(Nc2nc(NCCO)c3ccccc3n2)c1     inactive
4  CC1SC(c2ccc(Cl)cc2)N(CCc2cccs2)C1=O (stereo unspecified)       active
5    COc1ccc(OC)c(/C=C2\Oc3cc(O)ccc3C2=O)c1     inactive
6  c1ccc(-c2n(Cc3ccc4ccccc4c3)c3ccccc3[n+]2Cc2ccc3ccccc3c2)cc1       active
7  CC1CCCCN1S(=O)(=O)c1ccc(CN=C=S)cc1 (stereo unspecified)     inactive
8                            Brc1ccc(Br)nn1       active
9  COc1ccc(OC)c(C2C(C#N)=C(N)Oc3cc(O)ccc32)c1 (stereo unspecified)     inactive

Now consider the entry below.
input: Short answer needed: outcome of this test for COc1cccc(C2C3=C(COC3=O)N(CCO)c3cc4c(cc32)CCC4)c1 (stereo unspecified) ?
output: inactive
